Provenance of the data: ChEMBL document CHEMBL1121527

Test system: Canis familiaris
experiment.summary: Tested for increase in iliac blood flow was measured in anesthetized dogs before timolol administered intra arterially at dose […]
Type: functional, Canis lupus familiaris, Artery

| compound | Activity [mL/min] |
| --- | --- |
| CC(C)(C)NCC(O)COc1ncccc1C#N (stereo unspecified) | 98 |
| CC(C)(C)NCC(O)COc1nscc1C#N (stereo unspecified) | 22 |
| CC(C)(C)NCC(O)COc1nscc1Br (stereo unspecified) | 31 |
| CC(C)(C)NCC(O)COc1nc2ncccc2cc1C#N (stereo unspecified) | 0 |
| CC(C)(C)NCC(O)COc1ncsc1C#N (stereo unspecified) | 125 |
| NNc1nncc2ccccc12 [HYDRALAZINE] | 66 |

----------
ED50 by entry:
Test system: Canis familiaris
experiment.summary: Beta adrenergic blockade activity was measured in anesthetized dogs by blockade of isoproterenol induced hypotension after iv administration
Format: functional
test.conditions: Canis lupus familiaris
measure.name: ED50 (mg/kg)

| molecule | quantity.unit | value.measured |
| --- | --- | --- |
| CC(C)(C)NCC(O)COc1ncccc1C#N (stereo unspecified) | mg/kg | 0.0052 |
| CC(C)(C)NCC(O)COc1ncsc1C#N (stereo unspecified) | mg/kg | 0.03 |
| CC(C)(C)NCC(O)COc1nscc1Br (stereo unspecified) | mg/kg | 0.003 |
| CC(C)(C)NCC(O)COc1nscc1C#N (stereo unspecified) | mg/kg | 0.027 |
| CC(C)(C)NC[C@H](O)COc1nsnc1N1CCOCC1 | mg/kg | 0.0013 |
| CC(C)NCC(O)COc1cccc2ccccc12 (stereo unspecified) | mg/kg | 0.019 |
